System: IA-LM
Test: relative viability (nuclei count vs DMSO), 5 days (fraction); higher = more cells survive
Conditions: first compound 0.006325 µM
Let's look at some molecules and their measured relative viability.
API note: the answer field is a bare number with no unit suffix.

CC(=O)O[C@@]12CO[C@@H]1C[C@H](O)[C@@]1(C)C(=O)[C@H](O)C3=C(C)[C@@H](OC(=O)[C@H](O)[C@@H](NC(=O)OC(C)(C)C)c4ccccc4)C[C@@](O)([C@@H](OC(=O)c4ccccc4)[C@H]21)C3(C)C [Docetaxel] + Cc1nc(NC(=O)N2CCC[C@H]2C(N)=O)sc1-c1ccnc(C(C)(C)C(F)(F)F)c1 [Alpelisib] (partner 2 µM)
0.0821
CC(=O)O[C@@]12CO[C@@H]1C[C@H](O)[C@@]1(C)C(=O)[C@H](O)C3=C(C)[C@@H](OC(=O)[C@H](O)[C@@H](NC(=O)OC(C)(C)C)c4ccccc4)C[C@@](O)([C@@H](OC(=O)c4ccccc4)[C@H]21)C3(C)C [Docetaxel] + CC1(C)CCC(c2ccc(Cl)cc2)=C(CN2CCN(c3ccc(C(=O)NS(=O)(=O)c4ccc(N[C@H](CCN5CCOCC5)CSc5ccccc5)c(S(=O)(=O)C(F)(F)F)c4)cc3)CC2)C1 [Navitoclax] (partner 0.5 µM)
0.0267
CC(=O)O[C@@]12CO[C@@H]1C[C@H](O)[C@@]1(C)C(=O)[C@H](O)C3=C(C)[C@@H](OC(=O)[C@H](O)[C@@H](NC(=O)OC(C)(C)C)c4ccccc4)C[C@@](O)([C@@H](OC(=O)c4ccccc4)[C@H]21)C3(C)C [Docetaxel] + C[C@]1(O)C[C@@H](c2nc(-c3ccc4ccc(-c5ccccc5)nc4c3)c3c(N)nccn32)C1 [Linsitinib] (partner 1 µM)
0.0528

Here's the next entry for you.
Given the molecule CC(=O)O[C@@]12CO[C@@H]1C[C@H](O)[C@@]1(C)C(=O)[C@H](O)C3=C(C)[C@@H](OC(=O)[C@H](O)[C@@H](NC(=O)OC(C)(C)C)c4ccccc4)C[C@@](O)([C@@H](OC(=O)c4ccccc4)[C@H]21)C3(C)C [Docetaxel] + C[C@@H](Oc1cc(-c2cnn(C3CCNCC3)c2)cnc1N)c1c(Cl)ccc(F)c1Cl [Crizotinib] (partner 1 µM) , what is its reported relative viability?
0.078

* * *

Tested on: NCI-H1975
Test: relative viability (nuclei count vs DMSO), 5 days (fraction); higher = more cells survive
Settings: first compound 0.000632 µM
endpoint-name: relative viability
API note: the answer field is a bare number with no unit suffix.

CC(=O)O[C@@]12CO[C@@H]1C[C@H](O)[C@@]1(C)C(=O)[C@H](O)C3=C(C)[C@@H](OC(=O)[C@H](O)[C@@H](NC(=O)OC(C)(C)C)c4ccccc4)C[C@@](O)([C@@H](OC(=O)c4ccccc4)[C@H]21)C3(C)C [Docetaxel] + CS(=O)(=O)CCNCc1ccc(-c2ccc3ncnc(Nc4ccc(OCc5cccc(F)c5)c(Cl)c4)c3c2)o1 [Lapatinib] (partner 2 µM)
0.449
CC(=O)O[C@@]12CO[C@@H]1C[C@H](O)[C@@]1(C)C(=O)[C@H](O)C3=C(C)[C@@H](OC(=O)[C@H](O)[C@@H](NC(=O)OC(C)(C)C)c4ccccc4)C[C@@](O)([C@@H](OC(=O)c4ccccc4)[C@H]21)C3(C)C [Docetaxel] + COc1cccc2cc(-c3nc([C@H]4CC[C@H](C(=O)O)CC4)n4ncnc(N)c34)[nH]c12 [OSI-027] (partner 0.5 µM)
0.479

Here's the next entry for you.
Query the reported relative viability for NCI-H1975; item: CC(=O)O[C@@]12CO[C@@H]1C[C@H](O)[C@@]1(C)C(=O)[C@H](O)C3=C(C)[C@@H](OC(=O)[C@H](O)[C@@H](NC(=O)OC(C)(C)C)c4ccccc4)C[C@@](O)([C@@H](OC(=O)c4ccccc4)[C@H]21)C3(C)C [Docetaxel] + CCNC(=O)c1noc(-c2cc(C(C)C)c(O)cc2O)c1-c1ccc(CN2CCOCC2)cc1 [Luminespib] (partner 0.01 µM)
0.24

* * *

Let's look at some molecules and their measured relative viability.
Test system: NCI-H838
Assay: relative viability (nuclei count vs DMSO), 5 days (fraction); higher = more cells survive
Conditions: first compound 0.000632 µM
API note: the answer field is a bare number with no unit suffix.

Given the molecule CC(=O)O[C@@]12CO[C@@H]1C[C@H](O)[C@@]1(C)C(=O)[C@H](O)C3=C(C)[C@@H](OC(=O)[C@H](O)[C@@H](NC(=O)OC(C)(C)C)c4ccccc4)C[C@@](O)([C@@H](OC(=O)c4ccccc4)[C@H]21)C3(C)C [Docetaxel] + CC(=O)c1c(C)c2cnc(Nc3ccc(N4CCNCC4)cn3)nc2n(C2CCCC2)c1=O [Palbociclib] (partner 0.5 µM) , what is its reported relative viability?
0.251

Now the same for CC(=O)O[C@@]12CO[C@@H]1C[C@H](O)[C@@]1(C)C(=O)[C@H](O)C3=C(C)[C@@H](OC(=O)[C@H](O)[C@@H](NC(=O)OC(C)(C)C)c4ccccc4)C[C@@](O)([C@@H](OC(=O)c4ccccc4)[C@H]21)C3(C)C [Docetaxel] + CS(=O)(=O)N1CCN(Cc2cc3nc(-c4cccc5[nH]ncc45)nc(N4CCOCC4)c3s2)CC1 [Pictilisib] (partner 1 µM)
0.473

Now the same for CC(=O)O[C@@]12CO[C@@H]1C[C@H](O)[C@@]1(C)C(=O)[C@H](O)C3=C(C)[C@@H](OC(=O)[C@H](O)[C@@H](NC(=O)OC(C)(C)C)c4ccccc4)C[C@@](O)([C@@H](OC(=O)c4ccccc4)[C@H]21)C3(C)C [Docetaxel] + CC(=O)Nc1cccc(-n2c(=O)n(C3CC3)c(=O)c3c(Nc4ccc(I)cc4F)n(C)c(=O)c(C)c32)c1 [Trametinib] (partner 0.02 µM)
0.638

* * *

Let's look at some molecules and their measured relative viability.
System: NCI-H1975
Test: relative viability (nuclei count vs DMSO), 5 days (fraction); higher = more cells survive
Conditions: first compound 0.000632 µM
API note: the answer field is a bare number with no unit suffix.

// below: answered molecules
CC(=O)O[C@@]12CO[C@@H]1C[C@H](O)[C@@]1(C)C(=O)[C@H](O)C3=C(C)[C@@H](OC(=O)[C@H](O)[C@@H](NC(=O)OC(C)(C)C)c4ccccc4)C[C@@](O)([C@@H](OC(=O)c4ccccc4)[C@H]21)C3(C)C [Docetaxel] + CS(=O)(=O)N1CCN(Cc2cc3nc(-c4cccc5[nH]ncc45)nc(N4CCOCC4)c3s2)CC1 [Pictilisib] (partner 1 µM)
0.261
CC(=O)O[C@@]12CO[C@@H]1C[C@H](O)[C@@]1(C)C(=O)[C@H](O)C3=C(C)[C@@H](OC(=O)[C@H](O)[C@@H](NC(=O)OC(C)(C)C)c4ccccc4)C[C@@](O)([C@@H](OC(=O)c4ccccc4)[C@H]21)C3(C)C [Docetaxel] + C[C@]1(O)C[C@@H](c2nc(-c3ccc4ccc(-c5ccccc5)nc4c3)c3c(N)nccn32)C1 [Linsitinib] (partner 1 µM)
0.962
CC(=O)O[C@@]12CO[C@@H]1C[C@H](O)[C@@]1(C)C(=O)[C@H](O)C3=C(C)[C@@H](OC(=O)[C@H](O)[C@@H](NC(=O)OC(C)(C)C)c4ccccc4)C[C@@](O)([C@@H](OC(=O)c4ccccc4)[C@H]21)C3(C)C [Docetaxel] + CC(=O)Nc1cccc(-n2c(=O)n(C3CC3)c(=O)c3c(Nc4ccc(I)cc4F)n(C)c(=O)c(C)c32)c1 [Trametinib] (partner 0.02 µM)
0.263
CC(=O)O[C@@]12CO[C@@H]1C[C@H](O)[C@@]1(C)C(=O)[C@H](O)C3=C(C)[C@@H](OC(=O)[C@H](O)[C@@H](NC(=O)OC(C)(C)C)c4ccccc4)C[C@@](O)([C@@H](OC(=O)c4ccccc4)[C@H]21)C3(C)C [Docetaxel] + C[C@@H](Oc1cc(-c2cnn(C3CCNCC3)c2)cnc1N)c1c(Cl)ccc(F)c1Cl [Crizotinib] (partner 1 µM)
0.483
CC(=O)O[C@@]12CO[C@@H]1C[C@H](O)[C@@]1(C)C(=O)[C@H](O)C3=C(C)[C@@H](OC(=O)[C@H](O)[C@@H](NC(=O)OC(C)(C)C)c4ccccc4)C[C@@](O)([C@@H](OC(=O)c4ccccc4)[C@H]21)C3(C)C [Docetaxel] + N=C(N)NC(=N)NCCc1ccccc1 [Phenformin] (partner 250 µM)
0.334

Query the reported relative viability for NCI-H1975; item: CC(=O)O[C@@]12CO[C@@H]1C[C@H](O)[C@@]1(C)C(=O)[C@H](O)C3=C(C)[C@@H](OC(=O)[C@H](O)[C@@H](NC(=O)OC(C)(C)C)c4ccccc4)C[C@@](O)([C@@H](OC(=O)c4ccccc4)[C@H]21)C3(C)C [Docetaxel] + Cc1cc(Nc2cc(N3CCN(C)CC3)nc(Sc3ccc(NC(=O)C4CC4)cc3)n2)n[nH]1 [Tozasertib] (partner 0.1 µM)
0.367
